- PROTOCOL_DESCRIPTION: MTT cytotoxicity assay
- Type: cell-based, human
- CONDITION_NOTES: human, HEK293T cells, HEK293T, 12.5 µM; read-out: OD450, cytotoxicity (Fig 2a), replicates
- Description: To determine the cytotoxicity of the peptides, we used the MTT (3-(4,5)-dimethylthiahiazo (-z-y1)-3,5-di-phenytetrazoliumromide) dye reduction assay against HEK293T cells. In brief, the 100 μL of cells in 96-well plate were incubated for 24 h at 37 °C, 5% CO2, and then peptide solutions (concentrations ranging from 100 to 0.39 μM) were added and further incubated for 72 h. MTT solution (5 mg/mL) was added and further incubated for 4 h. […]
Non-standard residues stand in square brackets, D forms with d. Residues, ends and D or L forms follow the SMILES beside them.
viability at 72 h, 12.5 µM by entry:
Write down the numeric answer in % and omit the unit.

In: State its viability at 72 h, 12.5 µM: CC[C@@H](C)[C@@H](NC(=O)[C@@H](Cc1ccccc1)NC(=O)[C@@H](Cc1ccccc1)NC(=O)[C@@H](Cc1ccccc1)NC(=O)[C@H](N)Cc1ccccc1)C(=O)N[C@H](CCCNC(=N)N)C(=O)N[C@H](CCCNC(=N)N)C(=O)N[C@H](CC(C)C)C(=O)N[C@H](Cc1ccccc1)C(=O)N[C@H](CCCNC(=N)N)C(N)=O [RI-HT2] (H-[dF][dF][dF][dF][dI][dR][dR][dL][dF][dR]-NH2; N-terminus assumed)
Out: 87.8

----------
- Test system: sheep red blood cells
- PROTOCOL_DESCRIPTION: Hemolysis assay
- CONDITION_NOTES: red cells of sheep, 1 h
Non-standard residues stand in square brackets, D forms with d. Residues, ends and D or L forms follow the SMILES beside them.
HC10 (concentration inducing 10% hemolysis) values by entry

Use the examples below as a reference point.
MOLECULE	RESULT_VALUE
CC[C@H](C)[C@H](NC(=O)[C@H](CCCNC(=N)N)NC(=O)[C@H](CCCNC(=N)N)NC(=O)[C@H](CC(C)C)NC(=O)[C@H](Cc1ccccc1)NC(=O)[C@@H](N)CCCNC(=N)N)C(=O)N[C@@H](Cc1ccccc1)C(=O)N[C@@H](CCCNC(=N)N)C(=O)N[C@@H](Cc1ccccc1)C(=O)N[C@@H](Cc1ccccc1)C(=O)N[C@@H](Cc1ccccc1)C(N)=O [HT4] (H-RFLRRIFRFFF-NH2)	12.5 µM
CC[C@@H](C)[C@@H](NC(=O)[C@@H](Cc1ccccc1)NC(=O)[C@@H](Cc1ccccc1)NC(=O)[C@@H](Cc1ccccc1)NC(=O)[C@H](N)Cc1ccccc1)C(=O)N[C@H](CCCNC(=N)N)C(=O)N[C@H](CCCNC(=N)N)C(=O)N[C@H](CC(C)C)C(=O)N[C@H](Cc1ccccc1)C(=O)N[C@H](CCCNC(=N)N)C(N)=O [RI-HT2] (H-[dF][dF][dF][dF][dI][dR][dR][dL][dF][dR]-NH2; N-terminus assumed)	> 100.0 µM

Next item in the queue.
In: # return HC10 (concentration inducing 10% hemolysis) for CC[C@H](C)[C@H](NC(=O)[C@H](CCCNC(=N)N)NC(=O)[C@H](CCCNC(=N)N)NC(=O)[C@H](CC(C)C)NC(=O)[C@H](Cc1ccccc1)NC(=O)[C@H](Cc1ccccc1)NC(=O)[C@H](Cc1ccccc1)NC(=O)[C@@H](N)Cc1ccccc1)C(=O)N[C@@H](Cc1ccccc1)C(=O)N[C@@H](CCCNC(=N)N)C(=O)N[C@@H](CCCNC(=N)N)C(N)=O [F-SHf(R^5)-RR] (H-FFFFLRRIFRR-NH2; N-terminus assumed) , test system: sheep red blood cells
Out: > 100.0 µM
